Attribute: pEC50
Tested on: Polaribacter sp. (TC5)
method: Anti-adhesion test, strain TC5
Assay type: cell-based
experimental.setup: read-out: EC50 (effective concentration to inhibit 50% of the adhesion)
// pEC50 is dimensionless: -log10 of concentration (M)

These recorded examples may help you get a feel for the data.
| molecule.smiles | measurement.target | value.observed |
| --- | --- | --- |
| CN(C)CCOc1ccc(CCn2cc(-c3ccc(-c4cn(CCc5ccc(OCCN(C)C)c(Cl)c5)nn4)cc3)nn2)cc1Cl | Polaribacter sp. (TC5) | 3.88 |
| CN(C)CCCOc1ccc(-n2cc(-c3ccc(-c4cn(-c5ccc(OCCCN(C)C)c(Br)c5)nn4)cc3)nn2)cc1Br | Polaribacter sp. (TC5) | 4.30 |
| CN(C)CCCOc1ccc(CCn2cc(-c3ccc(-c4cn(CCc5ccc(OCCCN(C)C)c(Cl)c5)nn4)cc3)nn2)cc1Cl | Polaribacter sp. (TC5) | 3.82 |
| CN(C)CCCOc1ccc(CCn2cc(-c3ccc(-c4cn(CCc5ccc(OCCCN(C)C)c(I)c5)nn4)cc3)nn2)cc1I | Polaribacter sp. (TC5) | 4.15 |

API: the following record is the query input.
Record `CN(C)CCCOc1ccc(CCCn2cc(-c3ccc(-c4cn(CCCc5ccc(OCCCN(C)C)c(Br)c5)nn4)cc3)nn2)cc1Br` , field pEC50: 3.94

----------
System: Pseudoalteromonas ulvae (TC14)
method: Anti-adhesion test, strain TC14
Assay type: cell-based
experimental.setup: Pseudoalteromonas ulvae, 15 h, 200 μM
# if value of activity at 200 µM reaches 30%, tag Fulfilled; if it stays below, tag Not fulfilled

Example results:
| molecule.smiles | measurement.target | group.label |
| --- | --- | --- |
| CN(C)CCOc1ccc(CCn2cc(CCCc3cn(CCc4ccc(OCCN(C)C)c(Br)c4)nn3)nn2)cc1Br | Pseudoalteromonas ulvae (TC14) | Fulfilled |
| CN(C)CCCOc1ccc(CCn2cc(CNCc3cn(CCc4ccc(OCCCN(C)C)c(Br)c4)nn3)nn2)cc1Br | Pseudoalteromonas ulvae (TC14) | Fulfilled |
| COc1ccc(Cn2cc(-c3ccc(-c4cn(Cc5ccc(OC)c(Br)c5)nn4)cc3)nn2)cc1Br | Pseudoalteromonas ulvae (TC14) | Not fulfilled |

Input line: activity at 200 µM >= 30% for `CN(C)CCCOc1ccc(CCn2cc(-c3ccc(-c4cn(CCc5ccc(OCCCN(C)C)c(Cl)c5)nn4)cc3)nn2)cc1Cl` ?
Output line: Not fulfilled

Input line: Decide: is the reported value of activity at 200 µM for `CN(C)CCCOc1ccc(CCn2cc(CCCc3cn(CCc4ccc(OCCCN(C)C)c(Br)c4)nn3)nn2)cc1Br` equal to or greater than 30%?
Output line: Fulfilled

----------
The reader will find reported IE % values listed item by item below.
method: Gravimetry (weight loss), corrosion inhibition
experimental.setup: 2 ppm; mild steel in 1N HCl
// note: answer is a bare numeric in %

// solved cases for IE % follow
| molecule.smiles | IE %, % |
| --- | --- |
| CN(C)CCCOc1ccc(CCn2cc(COCc3cn(CCc4ccc(OCCCN(C)C)c(Br)c4)nn3)nn2)cc1Br | 95.77 |
| CN(C)CCOc1ccc(CCn2cc(CCCc3cn(CCc4ccc(OCCN(C)C)c(Br)c4)nn3)nn2)cc1Br | 95.98 |
| CN(C)CCOc1ccc(CCn2cc(-c3ccc(-c4cn(CCc5ccc(OCCN(C)C)c(I)c5)nn4)cc3)nn2)cc1I | 95.23 |

Entry under test: `CN(C)CCCOc1ccc(CCn2cc(CNCc3cn(CCc4ccc(OCCCN(C)C)c(Br)c4)nn3)nn2)cc1Br` . Its IE % was 95.98

----------
method: Gravimetry (weight loss), corrosion inhibition
experimental.setup: 0.5 ppm; mild steel in 1N HCl
# key: entry, value: IE %
Reply numerically in %, unit not repeated.

| molecule.smiles | quantity.kind | display.unit | value.observed |
| --- | --- | --- | --- |
| CN(C)CCOc1ccc(CCn2cc(CCCCc3cn(CCc4ccc(OCCN(C)C)c(Br)c4)nn3)nn2)cc1Br | IE % | % | 91.95 |

`CN(C)CCCOc1ccc(-n2cc(-c3ccc(-c4cn(-c5ccc(OCCCN(C)C)c(Br)c5)nn4)cc3)nn2)cc1Br` yielded IE % of 90.41

For record `CN(C)CCCOc1ccc(CCn2cc(-c3ccc(-c4cn(CCc5ccc(OCCCN(C)C)cc5)nn4)cc3)nn2)cc1` the listed IE % is 94.65

----------
The molecules listed here are annotated with their activity at 200 µM.
Test system: Pseudoalteromonas ulvae (TC14)
method: Anti-adhesion test, strain TC14
Format: cell-based
experimental.setup: Pseudoalteromonas ulvae, 15 h, 200 μM
The answer is to be given in %; state only the numeric part.

| molecule | activity at 200 µM, % |
| --- | --- |
| CN(C)CCCOc1ccc(-n2cc(-c3ccc(-c4cn(-c5ccc(OCCCN(C)C)c(Br)c5)nn4)cc3)nn2)cc1Br [SA66] | 19 |
| CN(C)CCCOc1c(Br)cc(CCn2cc(-c3ccc(-c4cn(CCc5cc(Br)c(OCCCN(C)C)c(Br)c5)nn4)cc3)nn2)cc1Br [SA34] | 13 |
| COc1ccc(CCn2cc(CNCc3cn(CCc4ccc(OC)c(Br)c4)nn3)nn2)cc1Br [NT7] | 37.4 |

Please examine the following record next.
Form field activity at 200 µM, entry Oc1ccc(CCn2cc(-c3ccc(-c4cn(CCc5ccc(O)c(Br)c5)nn4)cc3)nn2)cc1Br [NT23] : 31

----------
Tested on: Pseudoalteromonas ulvae (TC14)
method: Anti-adhesion test, strain TC14
Assay type: cell-based
experimental.setup: Pseudoalteromonas ulvae, 15 h, 200 μM
# reported activity at 200 µM; entries follow
Record the value in %, omitting the unit from your answer.

Field activity at 200 µM (entry `Oc1ccc(CCn2cc(-c3ccc(-c4cn(CCc5ccc(O)c(I)c5)nn4)cc3)nn2)cc1I` ) reads 6.8

Measured activity at 200 µM of `CN(C)CCCOc1ccc(CCn2cc(-c3ccc(-c4cn(CCc5ccc(OCCCN(C)C)c(I)c5)nn4)cc3)nn2)cc1I` : 30.2

Lab note: `CN(C)CCOc1ccc(CCn2cc(CCCCc3cn(CCc4ccc(OCCN(C)C)c(Br)c4)nn3)nn2)cc1Br` gave activity at 200 µM of 61.5

Lab note: measured activity at 200 µM of `CN(C)CCCOc1ccc(CCn2cc(COCc3cn(CCc4ccc(OCCCN(C)C)c(Br)c4)nn3)nn2)cc1Br` was 41.7

----------
Tested on: Pseudoalteromonas lipolytica (TC8)
method: microbe, parasite or virus in culture
experimental.setup: strain TC8
quantity.kind: IS: LC50/EC50 (selectivity index), TC8
In your answer, state the number alone without any accompanying words.

| molecule.smiles | value.observed |
| --- | --- |
| CN(C)CCCOc1c(Br)cc(CCn2cc(-c3ccc(-c4cn(CCc5cc(Br)c(OCCCN(C)C)c(Br)c5)nn4)cc3)nn2)cc1Br | 3.5 |
| CN(C)CCOc1c(Br)cc(CCn2cc(-c3ccc(-c4cn(CCc5cc(Br)c(OCCN(C)C)c(Br)c5)nn4)cc3)nn2)cc1Br | 4.7 |
| CN(C)CCCOc1ccc(CCn2cc(-c3ccc(-c4cn(CCc5ccc(OCCCN(C)C)c(Br)c5)nn4)cc3)nn2)cc1Br | 10.9 |

Lab note: compound `CN(C)CCOc1ccc(CCn2cc(-c3ccc(-c4cn(CCc5ccc(OCCN(C)C)c(Br)c5)nn4)cc3)nn2)cc1Br` tested on Pseudoalteromonas lipolytica (TC8); recorded IS: LC50/EC50 (selectivity index), TC8 was 12.9

The value of IS: LC50/EC50 (selectivity index), TC8 recorded for `Oc1ccc(CCn2cc(-c3ccc(-c4cn(CCc5ccc(O)c(I)c5)nn4)cc3)nn2)cc1I` when tested on Pseudoalteromonas lipolytica (TC8) reads 8.9

----------
Tested on: marine bacterial strains (TC14, TC8, 4M6, TC5 and TC11)
method: Toxicity test, summary over the strains
Format: cell-based
experimental.setup: comparison with reference biocides
Description: In examples 64 and 65, the following marine bacterial strains are used.
quantity.kind: toxicity by LC50 values compared with TBTO/ZINEB

| molecule | value.observed |
| --- | --- |
| CN(C)CCOc1c(Br)cc(CCn2cc(-c3ccc(-c4cn(CCc5cc(Br)c(OCCN(C)C)c(Br)c5)nn4)cc3)nn2)cc1Br [SA33] | less toxic than ZINEB |
| Oc1ccc(CCn2cc(-c3ccc(-c4cn(CCc5ccc(O)c(I)c5)nn4)cc3)nn2)cc1I [SA43] | less toxic than ZINEB |
| CN(C)CCCOc1c(Br)cc(CCn2cc(-c3ccc(-c4cn(CCc5cc(Br)c(OCCCN(C)C)c(Br)c5)nn4)cc3)nn2)cc1Br [SA34] | less toxic than ZINEB |

Sourced from patent US10487071B2
